For each of the compounds below, state its Shanks Color Hue h*ab % of Controls.
- Tested on: skin and shanks of broilers
- protocolDetails: Reflectance colorimetry and visual classification of skin and shanks of broilers
- Format: in vivo, broiler chickens (Ross 308, Ross 508)
- cond: dry carcasses, average over doses, Table 6
The reply should be a number in %, with the unit left off.

Measured Shanks Color Hue h*ab % of Controls, CCCC(C)COC(=O)C(C)=CC=CC(C)=CC=CC=C(C)C=CC=C(C)C=CC1=C(C)CCCC1(C)C (stereo not drawn) : 101

Measured Shanks Color Hue h*ab % of Controls, CCCOC(=O)C(C)=CC=CC(C)=CC=CC=C(C)C=CC=C(C)C=CC1=C(C)CCCC1(C)C [(2), n-propyl beta-apo-8′-carotenoate] : 99

Measured Shanks Color Hue h*ab % of Controls, CC(C=CC=C(C)C=CC1=C(C)CCCC1(C)C)=CC=CC=C(C)C=CC=C(C)C(=O)OC1CCCC1 [(15), cyclopentyl beta-apo-8′-carotenoate] : 100

* * *

- protocolDetails: Carotenoid ester content in plasma, back skin and abdominal fat of broilers (HPLC)
- Assay type: in vivo, broiler chickens (Ross 308, Ross 508)
- cond: average over doses, Table 4
propertyMeasured: Analytical Content as Equivalent of Ethyl β-apo-8′-carotenoate in % of control Fat (%)
The reply should be a number in %, with the unit left off.

Measured Analytical Content as Equivalent of Ethyl β-apo-8′-carotenoate in % of control Fat, CCCC(C)COC(=O)C(C)=CC=CC(C)=CC=CC=C(C)C=CC=C(C)C=CC1=C(C)CCCC1(C)C (stereo not shown) [(11)] : 50

Measured Analytical Content as Equivalent of Ethyl β-apo-8′-carotenoate in % of control Fat, CC(C=CC=C(C)C=CC1=C(C)CCCC1(C)C)=CC=CC=C(C)C=CC=C(C)C(=O)OC(C)CC(C)C (stereo not shown) [(12)] : 49

Measured Analytical Content as Equivalent of Ethyl β-apo-8′-carotenoate in % of control Fat, CCCOC(=O)C(C)=CC=CC(C)=CC=CC=C(C)C=CC=C(C)C=CC1=C(C)CCCC1(C)C [(2), n-propyl beta-apo-8′-carotenoate] : 39

Measured Analytical Content as Equivalent of Ethyl β-apo-8′-carotenoate in % of control Fat, CC(C=CC=C(C)C=CC1=C(C)CCCC1(C)C)=CC=CC=C(C)C=CC=C(C)C(=O)OC1CCCC1 [(15), cyclopentyl beta-apo-8′-carotenoate] : 50
